Measured log10 EC50 by item
Biological target: T1, human TfR extracellular domain with N-terminal His tag (human, UniProt P02786 89-760)
T1 construct: Biotinylated in some assays; also called huTfR; HuTfR
T1 sequence (P02786 89-760 G142S): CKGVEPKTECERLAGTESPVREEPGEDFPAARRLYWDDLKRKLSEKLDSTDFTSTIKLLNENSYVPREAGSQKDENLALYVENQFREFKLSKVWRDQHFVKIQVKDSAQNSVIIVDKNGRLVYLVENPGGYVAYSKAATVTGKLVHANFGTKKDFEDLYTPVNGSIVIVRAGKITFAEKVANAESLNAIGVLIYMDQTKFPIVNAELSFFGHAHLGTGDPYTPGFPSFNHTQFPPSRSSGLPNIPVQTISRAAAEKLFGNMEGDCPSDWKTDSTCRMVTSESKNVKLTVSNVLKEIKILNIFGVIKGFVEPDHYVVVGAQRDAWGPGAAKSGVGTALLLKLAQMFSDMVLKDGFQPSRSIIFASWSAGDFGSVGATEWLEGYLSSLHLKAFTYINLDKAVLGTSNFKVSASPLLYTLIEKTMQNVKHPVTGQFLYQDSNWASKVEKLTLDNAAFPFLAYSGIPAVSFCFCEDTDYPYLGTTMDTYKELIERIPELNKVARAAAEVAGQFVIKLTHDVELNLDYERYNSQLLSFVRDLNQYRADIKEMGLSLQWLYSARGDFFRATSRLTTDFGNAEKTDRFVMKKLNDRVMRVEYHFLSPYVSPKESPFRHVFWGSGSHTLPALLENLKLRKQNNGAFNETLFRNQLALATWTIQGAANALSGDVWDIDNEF
Assay: ELISA, IgG
// stored as log10 of EC50 expressed in µg/mL

| binder | assay.value |
| --- | --- |
| T96A (antibody, V domains shown, also called 15G11.v5 T96A (CDR-H3) IgG; copies: 2 + 2) VH: EVQLVQSGAEVKKPGASVKVSCKASGYTFTSYWMHWVRQAPGQRLEWIGEINPTNGRTNYIEKFKSRATLTVDKSASTAYMELSSLRSEDTAVYYCARGARAYHYWGQGTMVTVSS VL: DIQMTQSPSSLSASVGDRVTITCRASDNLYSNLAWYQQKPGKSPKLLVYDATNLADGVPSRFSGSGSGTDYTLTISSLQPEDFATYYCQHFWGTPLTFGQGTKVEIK | -0.56 |
| H101A (antibody, V domains shown, also called 15G11.v5 H101A (CDR-H3) IgG; copies: 2 + 2) VH: EVQLVQSGAEVKKPGASVKVSCKASGYTFTSYWMHWVRQAPGQRLEWIGEINPTNGRTNYIEKFKSRATLTVDKSASTAYMELSSLRSEDTAVYYCARGTRAYAYWGQGTMVTVSS VL: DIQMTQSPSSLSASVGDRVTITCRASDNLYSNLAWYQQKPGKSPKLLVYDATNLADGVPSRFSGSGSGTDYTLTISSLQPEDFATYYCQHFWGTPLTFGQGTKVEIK | -1.85 |

# lookup: log10 EC50 of hu15G11.v5 IgG (antibody, V domains shown, Human IgG (detected with anti-human Fc gamma); also called humanized 15G11.v5) VH: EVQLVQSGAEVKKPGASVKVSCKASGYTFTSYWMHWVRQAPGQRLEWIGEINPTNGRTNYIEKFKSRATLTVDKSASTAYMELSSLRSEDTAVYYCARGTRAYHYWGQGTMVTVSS VL: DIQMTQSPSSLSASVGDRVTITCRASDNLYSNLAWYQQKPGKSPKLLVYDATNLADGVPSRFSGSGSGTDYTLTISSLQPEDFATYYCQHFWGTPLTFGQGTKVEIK
-1.80

# lookup: log10 EC50 of H90A (antibody, V domains shown, also called 15G11.v5 H90A (CDR-L3) IgG) VH: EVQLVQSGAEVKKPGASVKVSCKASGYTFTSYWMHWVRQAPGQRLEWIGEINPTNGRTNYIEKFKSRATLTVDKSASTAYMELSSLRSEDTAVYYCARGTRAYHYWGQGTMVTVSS VL: DIQMTQSPSSLSASVGDRVTITCRASDNLYSNLAWYQQKPGKSPKLLVYDATNLADGVPSRFSGSGSGTDYTLTISSLQPEDFATYYCQAFWGTPLTFGQGTKVEIK
-1.89

# lookup: log10 EC50 of P95A (antibody, V domains shown, also called 15G11.v5 P95A (CDR-L3) IgG) VH: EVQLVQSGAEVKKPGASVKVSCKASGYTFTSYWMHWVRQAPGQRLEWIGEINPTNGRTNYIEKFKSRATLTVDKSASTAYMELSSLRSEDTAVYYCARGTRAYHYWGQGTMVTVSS VL: DIQMTQSPSSLSASVGDRVTITCRASDNLYSNLAWYQQKPGKSPKLLVYDATNLADGVPSRFSGSGSGTDYTLTISSLQPEDFATYYCQHFWGTALTFGQGTKVEIK
-1.97

# lookup: log10 EC50 of F91A (antibody, V domains shown, also called 15G11.v5 F91A (CDR-L3) IgG) VH: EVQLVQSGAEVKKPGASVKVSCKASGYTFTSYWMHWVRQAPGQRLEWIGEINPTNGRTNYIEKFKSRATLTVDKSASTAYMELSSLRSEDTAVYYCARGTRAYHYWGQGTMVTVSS VL: DIQMTQSPSSLSASVGDRVTITCRASDNLYSNLAWYQQKPGKSPKLLVYDATNLADGVPSRFSGSGSGTDYTLTISSLQPEDFATYYCQHAWGTPLTFGQGTKVEIK
-1.34

# lookup: log10 EC50 of T94A (antibody, V domains shown, also called 15G11.v5 T94A (CDR-L3) IgG) VH: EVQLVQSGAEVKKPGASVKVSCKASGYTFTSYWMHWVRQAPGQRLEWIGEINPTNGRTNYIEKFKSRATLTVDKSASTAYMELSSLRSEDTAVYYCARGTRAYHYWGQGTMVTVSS VL: DIQMTQSPSSLSASVGDRVTITCRASDNLYSNLAWYQQKPGKSPKLLVYDATNLADGVPSRFSGSGSGTDYTLTISSLQPEDFATYYCQHFWGAPLTFGQGTKVEIK
-1.77
